Provenance of the data: patent US11534441B2

- TESTED_TARGET: MAP4K1 (HPK1) (Homo sapiens (Human))
- Sequence (Q92918 whole entry): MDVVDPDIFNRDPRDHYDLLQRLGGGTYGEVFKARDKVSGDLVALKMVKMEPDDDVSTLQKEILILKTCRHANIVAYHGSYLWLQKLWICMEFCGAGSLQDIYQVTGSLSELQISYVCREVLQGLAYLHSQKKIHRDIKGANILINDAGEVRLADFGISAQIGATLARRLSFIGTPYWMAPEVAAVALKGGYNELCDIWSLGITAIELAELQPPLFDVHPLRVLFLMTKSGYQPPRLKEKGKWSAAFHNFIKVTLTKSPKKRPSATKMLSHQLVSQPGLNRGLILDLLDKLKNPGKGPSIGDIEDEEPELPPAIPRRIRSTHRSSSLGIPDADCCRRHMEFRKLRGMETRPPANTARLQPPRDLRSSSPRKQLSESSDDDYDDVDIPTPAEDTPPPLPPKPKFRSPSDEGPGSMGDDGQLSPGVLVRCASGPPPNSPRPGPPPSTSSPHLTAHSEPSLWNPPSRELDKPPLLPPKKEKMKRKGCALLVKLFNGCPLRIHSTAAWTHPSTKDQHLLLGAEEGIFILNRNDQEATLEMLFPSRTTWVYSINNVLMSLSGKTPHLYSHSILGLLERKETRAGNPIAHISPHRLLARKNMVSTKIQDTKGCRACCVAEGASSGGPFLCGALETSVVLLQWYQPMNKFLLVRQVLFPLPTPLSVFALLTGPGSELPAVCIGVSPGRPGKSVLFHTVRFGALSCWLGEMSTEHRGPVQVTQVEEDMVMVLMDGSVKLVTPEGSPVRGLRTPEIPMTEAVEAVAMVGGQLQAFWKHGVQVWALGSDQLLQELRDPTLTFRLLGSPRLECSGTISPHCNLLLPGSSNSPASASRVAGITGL
- ASSAY_METHOD_TEXT: MAP4K1 (HPK1) biochemical enzymatic activity, electrophoretic mobility shift (EZReader 2), ATP at APPKM (26 μM)
- MEASUREMENT_PARAMETERS: numeric value
MEASUREMENT_NAME: IC50 (nM)

                                    compound  measurement_name  observed_result
 0  CC[C@@](C)(N)c1cnc(OC2CC2)c2cnc(Nc3ccc4c(n3)[C@](C)(CC)OC4=O)cc12              IC50             0.11
 1  C[C@H]1OC(=O)c2ccc(Nc3cc4c([C@](C)(N)C5CC5)cnc(OC5CC5)c4cn3)nc2C12CC2 (single isomer, unassigned)              IC50             0.05
 2  CC(C)(N)c1cnc(OCC(F)F)c2cnc(Nc3ccc4c(n3)C(C)(C)OC4=O)cc12              IC50             2.14
 3  CC[C@@](C)(N)c1cnc(OC2CC2)c2cnc(Nc3ccc4c(n3)[C@@H](C)[C@H](C)OC4=O)cc12              IC50             0.08
 4  COc1ncc(C(C)(C)N)c2cc(Nc3ccc4c(n3)CCNC4=O)ncc12              IC50             0.33
 5  CC[C@]1(C)OC(=O)c2ccc(Nc3cc4c(C(C)(C)N)cnc(OCC(F)(F)F)c4cn3)nc21              IC50             4.47
 6  COc1ncc(C(C)(C)N)c2cc(Nc3ccc(C#N)c(C(C)(C)F)n3)ncc12              IC50             0.67
 7  CC[C@](C)(N)c1cnc(OC2(C)CC2)c2cnc(Nc3ccc4c(n3)[C@@H](C)[C@@H](C)OC4=O)cc12              IC50             0.25
 8  C[C@@H]1OC(=O)c2ccc(Nc3cc4c([C@@](C)(N)C5CC5)cnc(NC5CC5)c4cn3)nc2[C@H]1C              IC50             5.24
 9  COc1ncc(C(C)(C)N)c2cc(Nc3ccc4c(n3)[C@H](C)[C@H](C)OC4=O)ncc12 (single isomer, unassigned)              IC50             0.15
10  COc1ncc(C(C)(C)N)c2cc(Nc3cnc4c(n3)CC(C)(C)OC4=O)ncc12              IC50             13.6
11  C[C@@H]1OC(=O)c2ccc(Nc3cc4c(C(C)(C)N)cnc(OCC(C)(F)F)c4cn3)nc2[C@H]1C              IC50             0.25
12  CCOc1ncc(C(C)(C)N)c2cc(Nc3ccc4c(n3)[C@H](C)C(C)(C)OC4=O)ncc12              IC50             0.27
13  C[C@H]1OC(=O)c2ccc(Nc3cc4c(C(C)(C)N)cnc(OC5CC5)c4cn3)nc2[C@@H]1C              IC50             0.56
14  CC1(C)CCc2nc(Nc3cc4c(C(C)(C)N)cnc(OC5CC5)c4cn3)ccc2C(=O)O1              IC50             1.84
15  CC(C)Oc1ncc(C(C)(C)N)c2cc(Nc3ccc4c(n3)CC(C)(C)OC4=O)ncc12              IC50             0.88
16  CC[C@@]1(C)OC(=O)c2ccc(Nc3cc4c(C(C)(C)N)cnc(OCC(F)(F)F)c4cn3)nc21              IC50              2.9
17  C[C@H](Oc1ncc(C(C)(C)N)c2cc(Nc3ccc4c(n3)CC(C)(C)OC4=O)ncc12)C(F)(F)F (single isomer, unassigned)              IC50             15.4
18  CC[C@@H]1OC(=O)c2ccc(Nc3cc4c(C(C)(C)N)cnc(OC5CC5)c4cn3)nc2[C@H]1C              IC50             1.33
19  CC1(Oc2ncc(C(C)(C)N)c3cc(Nc4ccc5c(n4)C4(CC4)C(C)(C)OC5=O)ncc23)CC1              IC50             0.36
20  COc1ncc(C(C)(C)N)c2cc(Nc3cnc(C#N)c(N4CCC[C@@H]4C)n3)ncc12              IC50             1.01
21  C[C@@H]1c2nc(Nc3cc4c(C(C)(C)N)cnc(OC5(C)CC5)c4cn3)ccc2C(=O)OC1(C)C              IC50             0.19
22  CC[C@](C)(N)c1cnc(OC2CC2)c2cnc(Nc3ccc4c(n3)CC(C)(C)OC4=O)cc12              IC50             5.86
23  COc1ncc(C(C)(C)N)c2cc(Nc3ccc4c(n3)[C@H]3CCC[C@H]3OC4=O)ncc12              IC50             0.26
24  COC[C@@](C)(N)c1cnc(C)c2cnc(Nc3ccc4c(n3)[C@@H](C)[C@H](C)OC4=O)cc12              IC50             0.35
25  COc1ncc(C(C)(C)N)c2cc(Nc3ccc4c(n3)[C@H](C)C(C)(C)OC4=O)ncc12              IC50             0.18
26  CC[C@](C)(N)c1cnc(OCC(F)(F)F)c2cnc(Nc3ccc4c(n3)C(C)(C)OC4=O)cc12 (single isomer, unassigned)              IC50             1.72
27  CCCOc1ncc([C@@](C)(N)CC)c2cc(Nc3ccc4c(n3)CC(C)(C)OC4=O)ncc12              IC50             3.89
28  C[C@@H]1OC(=O)c2ccc(Nc3cc4c(C(C)(C)N)cnc(OC5COC5)c4cn3)nc2[C@H]1C              IC50             0.42
29  C[C@@H]1OC(=O)c2ccc(Nc3cc4c(C(C)(C)N)cnc(O[C@@H]5CCOC5)c4cn3)nc2[C@H]1C              IC50             1.25
